- Target System: hASCT1 (Homo sapiens, UniProt P43007)
- Construct: expressed in transfected cells; host or cells: HEK293 (ATCC CRL-11268), transient transfection
- Sequence (P43007 1-532): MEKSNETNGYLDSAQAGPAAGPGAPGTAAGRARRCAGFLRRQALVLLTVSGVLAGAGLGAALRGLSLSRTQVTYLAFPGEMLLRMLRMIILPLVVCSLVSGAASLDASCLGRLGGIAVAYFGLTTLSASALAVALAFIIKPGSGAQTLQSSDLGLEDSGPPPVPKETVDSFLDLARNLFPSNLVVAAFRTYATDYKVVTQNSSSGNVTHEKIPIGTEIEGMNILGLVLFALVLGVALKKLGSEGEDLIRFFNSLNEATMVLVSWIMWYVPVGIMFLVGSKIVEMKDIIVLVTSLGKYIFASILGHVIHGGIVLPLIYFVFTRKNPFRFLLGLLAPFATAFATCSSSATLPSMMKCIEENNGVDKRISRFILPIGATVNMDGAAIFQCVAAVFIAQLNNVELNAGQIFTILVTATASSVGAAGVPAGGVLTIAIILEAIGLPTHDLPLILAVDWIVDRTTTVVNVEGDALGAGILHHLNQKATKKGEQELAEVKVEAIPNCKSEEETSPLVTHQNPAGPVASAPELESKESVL
- Measurement Description: Electrophysiology (whole-cell current recording) of transfected HEK293 cells, hASCT1
- Assay type: cell-based
- Test Settings: Table 3, dihydroxyproline derivatives; read-out: Ki All DNA: hASCT1
pKi: −log10 of the molar value.
Known pKi of a selection of molecules
Readout Kind: pKi

- Molecule: "O=C(O[C@]1(CO)CN[C@H](C(=O)O)C1)c1ccc(-c2ccc(C(F)(F)F)cc2)cc1 [SN75]"
  Meas Value: 5.93
- Molecule: "O=C(OC[C@@]1(O)CN[C@H](C(=O)O)C1)c1ccc(C(O)c2ccccc2)cc1 (stereo partly shown) [SN63]"
  Meas Value: 4.03
- Molecule: "O=C(O[C@]1(CO)CN[C@H](C(=O)O)C1)c1ccc(-c2ccc(F)cc2)cc1 [SN74]"
  Meas Value: 5.61
- Molecule: "O=C(OC[C@@]1(O)CN[C@H](C(=O)O)C1)c1ccc(-c2cccc(F)c2)cc1F [SN60]"
  Meas Value: 5.09

###

Known Ki of a selection of compounds
- Target System: rASCT2 (Rattus norvegicus, UniProt D3ZJ25)
- Construct: expressed in transfected cells; host or cells: HEK293 (ATCC CRL-11268), transient transfection
- Sequence (D3ZJ25 1-555): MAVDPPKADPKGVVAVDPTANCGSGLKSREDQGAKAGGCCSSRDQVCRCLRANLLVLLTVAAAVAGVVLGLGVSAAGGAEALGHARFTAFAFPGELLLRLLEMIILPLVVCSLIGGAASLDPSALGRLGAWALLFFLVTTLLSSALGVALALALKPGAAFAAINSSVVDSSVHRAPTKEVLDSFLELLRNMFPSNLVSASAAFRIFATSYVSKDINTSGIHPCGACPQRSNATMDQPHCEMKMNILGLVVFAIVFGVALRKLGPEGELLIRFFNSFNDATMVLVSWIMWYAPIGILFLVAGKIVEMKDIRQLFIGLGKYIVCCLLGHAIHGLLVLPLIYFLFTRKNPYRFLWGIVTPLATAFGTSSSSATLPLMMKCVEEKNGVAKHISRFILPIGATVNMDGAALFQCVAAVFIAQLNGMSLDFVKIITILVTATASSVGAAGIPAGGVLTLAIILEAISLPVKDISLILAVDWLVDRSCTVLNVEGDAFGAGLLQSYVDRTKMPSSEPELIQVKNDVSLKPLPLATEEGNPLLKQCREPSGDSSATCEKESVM
- Measurement Description: Electrophysiology (whole-cell current recording) of transfected HEK293 cells, rASCT2
- Assay type: cell-based
- Test Settings: apparent Ki in the absence of substrate, HEK293, mean ± SD; read-out: Ki rASCT2
- Procedure: Human embryonic kidney 293 (HEK293, ATCC CRL-11268) cells were cultured in DMEM media supplemented with 10% (v v) fetal bovine serum (FBS), 2 mM glutamine, 1% penicillin streptomycin solution, 1 mM sodium pyruvate and non-essential amino acids. […] Cells were analyzed using electrophysiological techniques 24-40 hours after transfection. […] Linear and nonlinear curve fitting of the experimental data were analyzed using MicroCal Origin software. […]
Readout Kind: Ki (µM)

- Compound: "N[C@@H](COC(=O)c1ccc(C(O)c2ccccc2)cc1)C(=O)O (stereo partly drawn)"
  Target System: "rASCT2 (Rattus norvegicus, UniProt D3ZJ25)"
  Readout Kind: "Ki"
  Unit Abbrev: "µM"
  Meas Value: 5.17
- Compound: "O=C(N[C@@H]1CN[C@H](C(=O)O)C1)c1ccc(-c2ccccc2)cc1"
  Target System: "rASCT2 (Rattus norvegicus, UniProt D3ZJ25)"
  Readout Kind: "Ki"
  Unit Abbrev: "µM"
  Meas Value: 1.68
- Compound: "N[C@@H](COC(=O)c1ccc(-c2cccc(F)c2)cc1F)C(=O)O"
  Target System: "rASCT2 (Rattus norvegicus, UniProt D3ZJ25)"
  Readout Kind: "Ki"
  Unit Abbrev: "µM"
  Meas Value: 19.7
- Compound: "O=C(O[C@@H]1CN[C@H](C(=O)O)C1)c1ccc(C(O)c2ccccc2)cc1 (stereo partly drawn)"
  Target System: "rASCT2 (Rattus norvegicus, UniProt D3ZJ25)"
  Readout Kind: "Ki"
  Unit Abbrev: "µM"
  Meas Value: 18.8
- Compound: "O=C(O[C@@H]1CN[C@H](C(=O)O)C1)c1ccc(-c2ccccc2)cc1"
  Target System: "rASCT2 (Rattus norvegicus, UniProt D3ZJ25)"
  Readout Kind: "Ki"
  Unit Abbrev: "µM"
  Meas Value: 0.73
- Compound: "N[C@@H](COC(=O)c1ccc(C(=O)c2ccccc2)cc1)C(=O)O"
  Target System: "rASCT2 (Rattus norvegicus, UniProt D3ZJ25)"
  Readout Kind: "Ki"
  Unit Abbrev: "µM"
  Meas Value: 22
